// provenance: paper PMC7211195

- TEST_PROTOCOL: Lapatinib pharmacokinetics and uptake in rat brain tissue (BT)
- Format: in vivo, rats
- APPLIED_CONDITIONS: male, Wistar, rat, brain, oral, lapatinib 100 mg/kg + elacridar, 0.25 h; read-out: Clapatinib in BT, single rat

# COMPOUND, concentration at 0.25 h
data = [
    ("CS(=O)(=O)CCNCc1ccc(-c2ccc3ncnc(Nc4ccc(OCc5cccc(F)c5)c(Cl)c4)c3c2)o1 [lapatinib]", "37.6 ng/mL"),
]

* * *

- TEST_PROTOCOL: Lapatinib pharmacokinetics and uptake in rat brain tissue (BT)
- Assay type: in vivo, rats
- APPLIED_CONDITIONS: male, Wistar, rat, brain tissue homogenate, po, 100 mg/kg, lapatinib p.o. 100 mg/kg alone, 1 h; read-out: Clapatinib in BT, S (medium value)

# MOL_SMILES, concentration at 1 h
records = [
    ("CS(=O)(=O)CCNCc1ccc(-c2ccc3ncnc(Nc4ccc(OCc5cccc(F)c5)c(Cl)c4)c3c2)o1", "76 ng/mL"),
]
